- system: human MET kinase L1195V (Homo sapiens, UniProt P08581, L1195V)
- Construct: GST-tagged recombinant human MET kinase domain; purchased Signal Chem
- Sequence (P08581 1078-1345 L1195V limits assumed): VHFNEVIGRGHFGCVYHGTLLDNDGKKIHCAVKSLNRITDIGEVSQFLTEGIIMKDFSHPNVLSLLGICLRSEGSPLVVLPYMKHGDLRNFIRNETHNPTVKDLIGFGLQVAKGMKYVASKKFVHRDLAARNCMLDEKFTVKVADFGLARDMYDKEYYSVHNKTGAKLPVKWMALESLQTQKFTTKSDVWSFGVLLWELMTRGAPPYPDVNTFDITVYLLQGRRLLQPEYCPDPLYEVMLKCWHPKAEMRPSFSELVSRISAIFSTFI
- assayNotes: c-Met Enzyme Assay, L1195V mutant
- Assay type: binding
- conditions: averaged IC50; L1195V 10 nM; 60-minute incubation at 22° C.
IC50 values for the compounds below.
measurementType: IC50 (nM)

[[record]]
compound = "COc1cc2nccc(Oc3ccc(NC(=O)c4cn(CC(=O)N(C)C)cc(-c5ccc(F)c(F)c5)c4=O)nc3)c2cc1OC [Example 24]"
measurementtype = "IC50"
scaleunit = "nM"
measurement = 92

[[record]]
compound = "COc1cc2nccc(Oc3ccc(NC(=O)c4cn(C(C)C)cc(-c5ccc(F)cc5C)c4=O)nc3)c2cc1OC [Example 19]"
measurementtype = "IC50"
scaleunit = "nM"
measurement = 10

[[record]]
compound = "CCC(CC)n1cc(C(=O)Nc2ccc(Oc3ccnc4cc(OC)c(OC)cc34)cn2)c(=O)c(-c2ccc(F)cc2F)c1 [Example 16]"
measurementtype = "IC50"
scaleunit = "nM"
measurement = 34.6

[[record]]
compound = "COc1ccc(-c2cn(C(C)C)cc(C(=O)Nc3ccc(Oc4ccnc5cc(OC)c(OC)cc45)cn3)c2=O)c(F)c1 [Example 31]"
measurementtype = "IC50"
scaleunit = "nM"
measurement = 59.1

[[record]]
compound = "COc1cc2nccc(Oc3ccc(NC(=O)c4cn(CC5CCOCC5)cc(-c5ccc(F)cc5)c4=O)nc3)c2cc1OC [Example 8]"
measurementtype = "IC50"
scaleunit = "nM"
measurement = 29.1

[[record]]
compound = "COc1cc(-c2cn(C(C)C)cc(C(=O)Nc3ccc(Oc4ccnc5cc(OC)c(OC)cc45)cn3)c2=O)ccc1F [Example 20]"
measurementtype = "IC50"
scaleunit = "nM"
measurement = 58.1

[[record]]
compound = "COc1cc2nccc(Oc3ccc(NC(=O)c4cn(CCC(C)C)cc(-c5ccc(F)cc5F)c4=O)nc3)c2cc1OC [Example 36]"
measurementtype = "IC50"
scaleunit = "nM"
measurement = 14.4


###

- system: MDR1 (P-gp) (Homo sapiens, UniProt P08183)
- Construct: expressed in transfected cells; host or cells: LLC-PK1
- Sequence (P08183 whole entry): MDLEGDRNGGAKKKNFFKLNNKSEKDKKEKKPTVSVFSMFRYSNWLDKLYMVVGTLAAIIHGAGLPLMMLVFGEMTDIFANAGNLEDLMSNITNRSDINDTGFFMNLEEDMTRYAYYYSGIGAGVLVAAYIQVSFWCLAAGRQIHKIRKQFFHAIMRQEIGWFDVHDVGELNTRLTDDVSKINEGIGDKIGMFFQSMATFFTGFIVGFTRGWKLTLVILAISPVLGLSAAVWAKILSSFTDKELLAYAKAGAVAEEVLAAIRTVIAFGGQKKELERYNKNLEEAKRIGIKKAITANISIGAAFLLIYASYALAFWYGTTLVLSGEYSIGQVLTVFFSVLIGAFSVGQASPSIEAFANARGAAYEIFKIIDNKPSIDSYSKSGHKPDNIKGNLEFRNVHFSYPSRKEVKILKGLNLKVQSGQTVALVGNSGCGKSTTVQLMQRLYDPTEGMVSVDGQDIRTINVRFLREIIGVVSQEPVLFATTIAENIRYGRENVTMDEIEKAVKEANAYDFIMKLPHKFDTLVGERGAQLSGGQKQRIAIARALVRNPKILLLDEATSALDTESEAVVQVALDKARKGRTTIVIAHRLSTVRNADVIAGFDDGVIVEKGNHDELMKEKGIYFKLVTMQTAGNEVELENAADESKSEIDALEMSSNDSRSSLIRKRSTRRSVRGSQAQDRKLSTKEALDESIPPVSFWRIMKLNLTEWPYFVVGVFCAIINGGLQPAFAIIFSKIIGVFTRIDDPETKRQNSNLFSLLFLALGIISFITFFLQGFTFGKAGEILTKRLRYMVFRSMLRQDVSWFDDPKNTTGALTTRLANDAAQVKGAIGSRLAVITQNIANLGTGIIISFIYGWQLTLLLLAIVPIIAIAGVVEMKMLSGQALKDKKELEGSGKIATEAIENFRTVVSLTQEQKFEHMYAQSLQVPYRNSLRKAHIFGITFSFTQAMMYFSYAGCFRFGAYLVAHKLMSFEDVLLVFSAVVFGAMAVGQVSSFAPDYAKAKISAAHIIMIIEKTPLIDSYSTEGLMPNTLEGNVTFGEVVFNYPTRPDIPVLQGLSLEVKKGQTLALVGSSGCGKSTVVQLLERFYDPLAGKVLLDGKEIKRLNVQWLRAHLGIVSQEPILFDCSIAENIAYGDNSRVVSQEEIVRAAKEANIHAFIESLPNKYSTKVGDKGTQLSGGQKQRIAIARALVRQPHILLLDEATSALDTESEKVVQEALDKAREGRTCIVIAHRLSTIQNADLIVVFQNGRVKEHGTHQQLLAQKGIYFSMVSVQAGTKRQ
- assayNotes: MDR1 LLC-PK1 permeability assay
- Type: in vitro ADME
- conditions: pig; permeability coefficient (Papp), MDR1 transfected LLC-PK1 cells
measurementType: Papp at 2 h, 1 μM (×10⁻⁶ cm/s)

[[record]]
compound = "COc1cc2nccc(Oc3cnc(NC(=O)c4cn(C(C)C)cc(-c5ccc(F)cc5)c4=O)nc3)c2cc1OC [Example 54]"
measurementtype = "Papp at 2 h, 1 μM"
op = "="
measurement = 12

[[record]]
compound = "COc1cc2nccc(Oc3ccc(NC(=O)c4cn(CCC(C)C)cc(-c5ccc(F)cc5F)c4=O)nc3)c2cc1OC [Example 36]"
measurementtype = "Papp at 2 h, 1 μM"
op = "="
measurement = 1

[[record]]
compound = "COc1cc2nccc(Oc3ccc(NC(=O)c4cn(C(C)C)cc(-c5ccc(F)c(F)c5)c4=O)nc3)c2cc1OC [Example 6]"
measurementtype = "Papp at 2 h, 1 μM"
op = "="
measurement = 7

[[record]]
compound = "CCn1cc(C(=O)Nc2ccc(Oc3ccnc4cc(OC)c(OC)cc34)cn2)c(=O)c(-c2ccc(F)cc2)c1 [Example 3]"
measurementtype = "Papp at 2 h, 1 μM"
op = "="
measurement = 10

[[record]]
compound = "CCCn1cc(C(=O)Nc2ccc(Oc3ccnc4cc(OC)c(OC)cc34)cn2)c(=O)c(-c2ccc(F)cc2)c1 [Example 10]"
measurementtype = "Papp at 2 h, 1 μM"
op = "="
measurement = 7

[[record]]
compound = "COc1cc2nccc(Oc3ccc(NC(=O)c4cn(C(C)C)c(C(C)C)c(-c5ccc(F)cc5)c4=O)nc3)c2cc1OC [Example 38]"
measurementtype = "Papp at 2 h, 1 μM"
op = "="
measurement = 25

[[record]]
compound = "COc1cc2nccc(Oc3ccc(NC(=O)c4cn(C5CCOCC5)cc(-c5ccc(F)cc5)c4=O)nc3)c2cc1OC [Example 12]"
measurementtype = "Papp at 2 h, 1 μM"
op = "="
measurement = 13

[[record]]
compound = "COc1cc2nccc(Oc3ccc(NC(=O)c4cn(C(C)C)cc(-c5ccc(F)cc5Cl)c4=O)nc3)c2cc1OC [Example 18]"
measurementtype = "Papp at 2 h, 1 μM"
op = "="
measurement = 11

[[record]]
compound = "COc1ccc(-c2cn(C(C)C)cc(C(=O)Nc3ccc(Oc4ccnc5cc(OC)c(OC)cc45)cn3)c2=O)c(F)c1 [Example 31]"
measurementtype = "Papp at 2 h, 1 μM"
op = "="
measurement = 11

[[record]]
compound = "COc1cc2nccc(Oc3ccc(NC(=O)c4cn(CCC(C)C)cc(-c5ccc(Cl)cc5)c4=O)nc3)c2cc1OC [Example 37]"
measurementtype = "Papp at 2 h, 1 μM"
op = "<"
measurement = 1

[[record]]
compound = "COc1cc2nccc(Oc3ccc(NC(=O)c4cn(CC(=O)N(C)C)cc(-c5ccc(F)c(F)c5)c4=O)nc3)c2cc1OC [Example 24]"
measurementtype = "Papp at 2 h, 1 μM"
op = "="
measurement = 9.5

[[record]]
compound = "COc1ccc(-c2cn(C(C)C)cc(C(=O)Nc3ccc(Oc4ccnc5cc(OC)c(OC)cc45)cn3)c2=O)cc1 [Example 30]"
measurementtype = "Papp at 2 h, 1 μM"
op = "="
measurement = 7

[[record]]
compound = "CCn1cc(C(=O)Nc2ccc(Oc3ccnc4ccc(OC)cc34)cn2)c(=O)c(-c2ccc(F)cc2)c1 [Example 39]"
measurementtype = "Papp at 2 h, 1 μM"
op = "="
measurement = 7

[[record]]
compound = "COc1cc2ncc(C#N)c(Oc3ccc(NC(=O)c4cn(C(C)C)cc(-c5ccc(F)cc5)c4=O)nc3)c2cc1OC [Example 57]"
measurementtype = "Papp at 2 h, 1 μM"
op = "="
measurement = 15


###

- system: human MET kinase L1195V (Homo sapiens, UniProt P08581, L1195V)
- Construct: GST-tagged recombinant human MET kinase domain
- assayNotes: c-Met Enzyme Assay, L1195V mutant
- conditions: averaged IC50; L1195V 10 nM; 60-minute incubation at 22° C.
pIC50: −log10 of the molar value.
measurementType: pIC50

[[record]]
compound = "CCn1cc(C(=O)Nc2ccc(Oc3ccnc4ccc(OC)cc34)cn2)c(=O)c(-c2ccc(F)cc2)c1 [Example 39]"
measurementtype = "pIC50"
measurement = 6.29

[[record]]
compound = "COc1cc2nccc(Oc3ccc(NC(=O)c4cn(C(C)C)c(C)c(-c5ccc(F)c(F)c5)c4=O)nc3)c2cc1OC [Example 28]"
measurementtype = "pIC50"
measurement = 8.40

[[record]]
compound = "CC(C)n1cc(C(=O)Nc2ccc(Oc3ccnc4cc(OC(F)(F)F)ccc34)cn2)c(=O)c(-c2ccc(F)cc2)c1 [Example 50]"
measurementtype = "pIC50"
measurement = 5.99

[[record]]
compound = "COc1cc2nccc(Oc3ccc(NC(=O)c4cn(CCC(C)C)cc(-c5ccc(F)cc5)c4=O)nc3)c2cc1OC [Example 34]"
measurementtype = "pIC50"
measurement = 7.95

[[record]]
compound = "COc1cc2nccc(Oc3ccc(NC(=O)c4cn(CCN(C)C)cc(-c5ccc(F)cc5)c4=O)nc3)c2cc1OC [Example 46]"
measurementtype = "pIC50"
measurement = 7.66

[[record]]
compound = "COc1cc2nccc(Oc3ccc(NC(=O)c4cn(CC(=O)N5CCCC5)cc(-c5ccc(F)cc5F)c4=O)nc3)c2cc1OC [Example 14]"
measurementtype = "pIC50"
measurement = 6.73

[[record]]
compound = "COc1ccc2nccc(Oc3ccc(NC(=O)c4cn(C(C)C)c(C)c(-c5ccc(F)cc5)c4=O)nc3)c2c1 [Example 33]"
measurementtype = "pIC50"
measurement = 7.69


###

- system: human MET kinase D1228N (Homo sapiens, UniProt P08581, D1228N)
- Construct: GST-tagged recombinant human MET kinase domain
- Sequence (P08581 1078-1345 D1228N): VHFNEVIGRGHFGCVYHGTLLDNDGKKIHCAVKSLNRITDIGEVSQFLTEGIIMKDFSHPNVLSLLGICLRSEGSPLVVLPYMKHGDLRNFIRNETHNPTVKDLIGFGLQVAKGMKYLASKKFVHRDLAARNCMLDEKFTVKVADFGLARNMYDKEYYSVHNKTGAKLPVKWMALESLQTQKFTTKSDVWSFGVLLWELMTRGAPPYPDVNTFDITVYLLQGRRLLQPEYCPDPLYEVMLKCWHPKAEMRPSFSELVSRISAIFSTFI
- assayNotes: c-Met Enzyme Assay, D1228N mutant
- conditions: averaged IC50; D1228N 2 nM; 60-minute incubation at 22° C.; read-out: D1228 N IC50
pIC50: −log10 of the molar value.
measurementType: pIC50

[[record]]
smilesnotation = "COc1cc2nccc(Oc3ccc(NC(=O)c4cn(C(C)C)cc(-c5ccc(F)c(F)c5)c4=O)nc3)c2cc1OC"
system = "human MET kinase D1228N (Homo sapiens, UniProt P08581, D1228N)"
measurement = 7.62

[[record]]
smilesnotation = "CCOc1ccc2c(Oc3ccc(NC(=O)c4cn(C(C)C)cc(-c5ccc(F)cc5)c4=O)nc3)ccnc2c1"
system = "human MET kinase D1228N (Homo sapiens, UniProt P08581, D1228N)"
measurement = 7.58

[[record]]
smilesnotation = "COc1cc2nccc(Oc3ccc(NC(=O)c4cn(CCC(C)C)cc(-c5ccc(F)cc5)c4=O)nc3)c2cc1OC"
system = "human MET kinase D1228N (Homo sapiens, UniProt P08581, D1228N)"
measurement = 8.14

[[record]]
smilesnotation = "COc1ccc2nccc(Oc3ccc(NC(=O)c4cn(C)cc(-c5ccc(F)cc5)c4=O)nc3)c2c1"
system = "human MET kinase D1228N (Homo sapiens, UniProt P08581, D1228N)"
measurement = 6.19

